The reported measurements were obtained from PubChem BioAssay AID179.

Tested on: CEM cells HIV-1 protection, formazan growth assay
testProtocol: NCI AIDS Antiviral Assay
conditionDescription: measured here: growth of uninfected CEM cells
Examples of molecules with documented pIC50 follow.
// returns pIC50 (minus log10 of molar concentration), number only

Here is how some molecules turned out for pIC50.
C=C1CC[N+]2(CCCCCC)CCCC12 (stereo not given) = 3.90
CCCC1N=C(c2ccccc2)C2C(c3ccc([N+](=O)[O-])cc3)N12 (stereo not given) = 3.83
COc1ccc(C2Oc3cc(OC)ccc3C(=O)C2c2ccccc2)cc1 (stereo not given) = 4.50

-- ask Bench note: what pIC50 did O=P(O)(O)CN1CCNCCN(CP(=O)(O)O)CCN(CP(=O)(O)O)CCNCC1 show?
-- reply 4.19

-- ask Bench note: what pIC50 did O=C(NCCS(=O)(=O)N1C(=O)C2CCCN2C(=O)[C@@H]1Cc1ccccc1)OCc1ccccc1 (stereo not given in full) show?
-- reply 4.27

====

Test system: CEM cells HIV-1 protection, formazan growth assay
testProtocol: NCI AIDS Antiviral Assay
conditionDescription: measured here: growth of uninfected CEM cells
measuredAttribute: log10(IC50) (log10 of the value in µM)
Form field - Quantity: IC50; Unit: µM; Scale: log10

-- ask Bench note: what log10(IC50) did CC(=O)Oc1ccc2c(oc(=O)c3nc(C)oc32)c1C show?
-- reply 2.16

-- ask Bench note: what log10(IC50) did CN(C)CCCNc1cc[n+](C)c2cccc([N+](=O)[O-])c12 show?
-- reply 1.02

-- ask Bench note: what log10(IC50) did CCOP1(=O)CC(C)=C(Cl)C(OC)C1 (configuration not stated) show?
-- reply 2.03

-- ask Bench note: what log10(IC50) did N#CC1C(=S)NC(c2ccccc2)=CC12CCCCC2 (configuration not stated) show?
-- reply 1.63

-- ask Bench note: what log10(IC50) did Cc1ccnc2[nH]c3ccccc3c(=O)c12 show?
-- reply 1.16

-- ask Bench note: what log10(IC50) did Cc1ccc(S(=O)(=O)NC2C(=O)c3ccccc3C(=O)C2n2cnc3ccccc32)cc1 (configuration not stated) show?
-- reply 1.63

-- ask Bench note: what log10(IC50) did CC(=O)Oc1ccn2nc(C)c(Cc3c(C)nn4ccc(OC(C)=O)cc34)c2c1 show?
-- reply 1.45

-- ask Bench note: what log10(IC50) did C=CC[C@H]1[C@@H](O[Si](C)(C)C(C)(C)C)[C@H](n2ccc(=O)[nH]c2=O)O[C@@H]1CO[Si](C)(C)C(C)(C)C show?
-- reply 1.00

====

System: CEM cells HIV-1 protection, formazan growth assay
testProtocol: NCI AIDS Antiviral Assay
conditionDescription: measured here: growth of uninfected CEM cells
measuredAttribute: pIC50
// returns pIC50 (minus log10 of molar concentration), number only

Here is how some compounds turned out for pIC50.
CCOC(=O)c1[nH]n(-c2ccccc2)c(=O)c1C=NC(=S)c1cccnc1 = 4.05
CC12CP(=O)(c3ccccc3)CC1c1ccccc1C2c1ccccc1 (stereo unspecified) = 4.50

Below: the item to evaluate.
-- ask Bench note: what pIC50 did COC(=O)C(Cc1nc2ccccc2[nH]c1=O)/C(=N\NC(C)(C)C)C(=O)Nc1c(C)cc(Br)cc1C (stereo unspecified) show?
-- reply 4.32

====

Examples of compounds with documented pIC50 follow.
Tested on: CEM cells HIV-1 protection, formazan growth assay
testProtocol: NCI AIDS Antiviral Assay
conditionDescription: measured here: growth of uninfected CEM cells
Description: The ability of compounds to protect human CEM cells from HIV-1 infection is measured as a screen for new compounds capable of inhibiting the HIV virus. Five concentrations of drug were tested on uninfected and infected cells and cell growth was measured using a soluble formazan assay. […] Compounds that provided at least 50% protection were retested. Compounds that provided at least 50% protection on retest were listed as moderately active. […]
pIC50: −log10 of the molar value.

CNC(=S)NNC1=NCCCN1 = < 3.70
Cc1ccc(C(=O)Nc2ccc(S(=O)(=O)O)c3cc(S(=O)(=O)O)cc(S(=O)(=O)O)c23)cc1NC(=O)Nc1cc(C(=O)Nc2ccc(S(=O)(=O)O)c3cc(S(=O)(=O)O)cc(S(=O)(=O)O)c23)ccc1C = 3.68
CCCC(N)S(=O)(=O)O (stereo not given) = < 3.70
O=c1c(-c2ccc(O)cc2)coc2cc(OC3OC(CO)C(O)C(O)C3O)cc(O)c12 (stereo not given) = < 3.70
CCOC(=O)/C(=C/c1ccc(F)cc1)C(=O)c1ccccc1 = < 4.76
C=CCNC(=O)NCCCC(NC(C)=O)C(=O)NCc1ccccc1 (stereo not given) = < 4.14
Cc1cc(S(=O)(=O)Nc2nc(N)nc(N(C)C)n2)c(S)cc1Cl = 3.78
COCc1c(C)oc2c(C)c3oc(=O)cc(C)c3cc12 = < 3.96

-- ask Form: Entry = Cc1cc2c(cc1O)CC[C@@H]1[C@@H]2CC[C@]2(C)[C@@H](O)CC[C@@H]12 | System = CEM cells HIV-1 protection, formazan growth assay | pIC50 = ____
-- reply 5.39

-- ask Form: Entry = Clc1ccc(C(=C=C(c2ccccc2)c2ccccc2)c2ccc(Cl)cc2)cc1 | System = CEM cells HIV-1 protection, formazan growth assay | pIC50 = ____
-- reply < 4.64

====

System: CEM cells HIV-1 protection, formazan growth assay
testProtocol: NCI AIDS Antiviral Assay
pEC50: −log10 of the molar value.
Examples of compounds with documented pEC50 follow.

C=C(C)/C=C/C(O)[C@](C)(O)[C@H]1[C@H](O)C[C@@]2(C)[C@@H]3CCc4c(cc(OC5OC(CO)C(O)C(O)C5O)c(O)c4C)C3(C)C(=O)C[C@]12C (some centres undefined) = < 3.70

Below: the item to evaluate.
-- ask Bench note: what pEC50 did CCN=C(NC(=O)c1c(Cl)cccc1Cl)SCSC(=NCC)NC(=O)c1c(Cl)cccc1Cl show?
-- reply < 3.70

====

Examples of compounds with documented IC50 follow.
Tested on: CEM cells HIV-1 protection, formazan growth assay
testProtocol: NCI AIDS Antiviral Assay
conditionDescription: measured here: growth of uninfected CEM cells
Give the quantity in µM, number only.

Here is how some compounds turned out for IC50.
COC(=O)[C@H](Cc1ccccc1)NC(=O)N1CCCN(C(=O)N[C@@H](Cc2ccccc2)C(=O)OC)CCCN(C(=O)N[C@@H](Cc2ccccc2)C(=O)OC)CCC1 = 27.5
C[C@H]1CC[C@H]([C@@H](C)[C@H]2[C@@H](O)C[C@H]3[C@@H]4CC[C@H]5C[C@@H](O)CC[C@]5(C)[C@H]4CC[C@]23C)NC1 = 12.6
O=C(NCCCNCCNC(=O)c1cc(-c2ccccc2)nc2ccccc12)c1cc(-c2ccccc2)nc2ccccc12 = 3.02
CC[C@@H]1OC2(C)CC(S(=O)(=O)c3ccccc3O)CC1O2 (stereo partly specified) = 741
O=S(=O)(O)SCCCNCCCCCCNCCCSS(=O)(=O)O = 129

-- ask Bench note: what IC50 did [N-]=[N+]=NC1=C(c2ccccc2)C(=O)c2cccc3cccc1c23 show?
-- reply 7.76

-- ask Bench note: what IC50 did COC(Cc1ccccc1)NC(C)=O (stereo unspecified) show?
-- reply 186

-- ask Bench note: what IC50 did CC[C@]1(c2ccc3c(c2)OCO3)C=[N+]([O-])O[C@H](OC2CCCC2(c2ccccc2)c2ccccc2)[C@@H]1OC(C)=O (stereo partly specified) show?
-- reply 4.07

-- ask Bench note: what IC50 did CC(=O)N1C(Nc2ccccc2)CCN1c1ccccc1 (stereo unspecified) show?
-- reply 11.2

-- ask Bench note: what IC50 did Nc1nc2c(s1)CCC2 show?
-- reply 5.62

-- ask Bench note: what IC50 did COc1cc(C=O)c(-c2cc3c(cc2C=O)OCO3)c(OC)c1OC show?
-- reply 51.3

====

Examples of molecules with documented EC50 follow.
System: CEM cells HIV-1 protection, formazan growth assay
testProtocol: NCI AIDS Antiviral Assay
Protocol: The ability of compounds to protect human CEM cells from HIV-1 infection is measured as a screen for new compounds capable of inhibiting the HIV virus. Five concentrations of drug were tested on uninfected and infected cells and cell growth was measured using a soluble formazan assay. […] Compounds that provided at least 50% protection were retested. Compounds that provided at least 50% protection on retest were listed as moderately active. […]

Here is how some molecules turned out for EC50.
O=C1c2ccccc2-c2c(Br)c3ccccc3c(=O)n21 = > 100 µM
CC/C(=C(\C#N)c1ccc(OC)cc1)c1ccc(N(C)C)cc1 = > 20 µM
CC(=O)OCC12CCC3C4(C)CCCC(C)(C)C4CCC3(C)C1CC(C1=CC(=O)OC1O)O2 (stereo not given) = > 200 µM
COc1cc([C@@H]2c3cc4c(c(O)c3C[C@H]3COC(=O)[C@@H]32)OCO4)cc(OC)c1OC = > 0.02 µM

Below: the item to evaluate.
-- ask Bench note: what EC50 did COc1ccc(CCN2C(=O)c3cccc4c(Sc5ccccc5[N+](=O)[O-])ccc(c34)C2=O)cc1OC show?
-- reply > 200 µM
